System: Madin-Darby bovine kidney (MDBK) cells
Assay: In vitro MTT cytotoxicity assay on MDBK cells
Format: cell-based
Details: MDBK cells, highest concentration with no significant effect on cell viability
QUANTITY_NAME: Maximum non-toxic concentration (µM)
# output: bare number, implied unit µM

COMPOUND	Maximum non-toxic concentration, µM
O=c1c(O[C@@H]2O[C@H](CO)[C@@H](O)[C@H](O)[C@H]2O)c(-c2ccc(O)c(O)c2)oc2cc(O)cc(O)c12	100
COc1cc(CCc2ccccc2O)cc(OC)c1O	100
COc1ccc(-c2cc(=O)c3c(O)c(C)c(OC)cc3o2)cc1	10
O=C(CCc1ccc(O)cc1)c1c(O)cc(O[C@@H]2O[C@H](CO)[C@@H](O)[C@H](O)[C@H]2O)cc1O	100
C[C@@H]1O[C@@H](O[C@H]2[C@H](O)[C@@H](O)[C@H](OC[C@H]3O[C@@H](OC(=O)[C@]45CCC(C)(C)C[C@H]4C4=CC[C@@H]6[C@@]7(C)CC[C@H](O[C@@H]8OC[C@H](O)[C@H](O)[C@H]8O[C@@H]8O[C@H](CO)[C@@H](O)[C@H](O)[C@H]8O)[C@@](C)(CO)[C@@H]7CC[C@@]6(C)[C@]4(C)CC5)[C@H](O)[C@@H](O)[C@@H]3O)O[C@@H]2CO)[C@H](O)[C@H](O)[C@H]1O [Component I-1, Cauloside G]	100

Attention now turns to another entry.
API: value(readout=Maximum non-toxic concentration, system=Madin-Darby bovine kidney (MDBK) cells) for record Oc1cc(O)c2c(c1)OC(c1ccc(O)c(O)c1)C(O)C2 (stereo not drawn)
100

* * *

Catalogue of compounds with associated viability at 24 h, 100 µM
Assay: In vitro MTT cytotoxicity assay on MDBK cells
Type: cell-based, bovine
Conditions: bovine, MDBK cells (NBL-1 strain)
Give the number; % is assumed, so skip it.

COMPOUND	viability at 24 h, 100 µM / %
Oc1cc(O)c2c(c1)O[C@H](c1cc(O)c(O)c(O)c1)[C@@H](O)C2 [Component F-1, Gallocatechin]	85.2

I have this compound here, CC1(C)CC[C@]2(C(=O)O)CC[C@]3(C)C(=CC[C@@H]4[C@@]5(C)CC[C@H](O)C(C)(C)[C@@H]5CC[C@]43C)[C@@H]2C1 [Component C-5, Oleanolic acid] , and I need its recorded viability at 24 h, 100 µM.
16.2

Recorded viability at 24 h, 100 µM of Oc1cc(O)c2c(c1)O[C@H](c1ccc(O)c(O)c1)[C@H](O)C2 [Component A-3, Epicatechin] , please.
108

Consider the compound O=C1C[C@@H](c2ccc(O)cc2)Oc2cc(O)cc(O)c21 [Component D-1, Naringenin] and give its measured viability at 24 h, 100 µM.
107

For the compound shown here, O=c1c(O[C@@H]2O[C@H](CO)[C@@H](O)[C@H](O)[C@H]2O)c(-c2ccc(O)c(O)c2)oc2cc(O)cc(O)c12 [Component A-4, Isoquercitrin] , give the reported viability at 24 h, 100 µM.
104

# query: viability at 24 h, 100 µM of entry OC[C@H]1O[C@@H](Oc2ccc(O)cc2)[C@H](O)[C@@H](O)[C@@H]1O [E−1, Arbutin]
102

Please look up its viability at 24 h, 100 µM: O=c1c(O[C@@H]2O[C@@H](CO)[C@H](O)[C@H]2O)c(-c2ccc(O)c(O)c2)oc2cc(O)cc(O)c12 [Component G-1, Avicularin]
89.5

Using the record for C[C@H]1[C@H](C)CC[C@]2(C(=O)O)CC[C@]3(C)C(=CC[C@@H]4[C@@]5(C)CC[C@H](O)C(C)(C)[C@@H]5CC[C@]43C)[C@H]12 [Component D-3, Ursolic acid] , report its viability at 24 h, 100 µM.
-14.2

* * *

Tested on: Madin-Darby bovine kidney (MDBK) cells
Assay: In vitro MTT cytotoxicity assay on MDBK cells
Format: cell-based
Details: MDBK cells, 1 μM, 24 h, MTT
The entries below come with measured Average cell viability (%) values attached.
Write it as a number; the unit % goes unstated.

COMPOUND	QUANTITY_NAME	VALUE_MEASURED
O=C(CCc1ccc(O)cc1)c1c(O)cc(O[C@@H]2O[C@H](CO)[C@@H](O)[C@H](O)[C@H]2O)cc1O	Average cell viability (%)	90.7
COc1ccc(-c2cc(=O)c3c(O)c(C)c(OC)cc3o2)cc1	Average cell viability (%)	92.5
O=C(CCc1ccc(O)cc1)c1c(O)cc(O)cc1O[C@@H]1O[C@H](CO)[C@@H](O)[C@H](O)[C@H]1O	Average cell viability (%)	90.9
C[C@@H]1O[C@@H](O[C@H]2[C@H](O)[C@@H](O)[C@H](OC[C@H]3O[C@@H](OC(=O)[C@]45CCC(C)(C)C[C@H]4C4=CC[C@@H]6[C@@]7(C)CC[C@H](O[C@@H]8OC[C@H](O)[C@H](O)[C@H]8O[C@@H]8O[C@H](CO)[C@@H](O)[C@H](O)[C@H]8O)[C@@](C)(CO)[C@@H]7CC[C@@]6(C)[C@]4(C)CC5)[C@H](O)[C@@H](O)[C@@H]3O)O[C@@H]2CO)[C@H](O)[C@H](O)[C@H]1O [Component I-1, Cauloside G]	Average cell viability (%)	103.3
COC1OC(CO)C(O)C(O)C1O (stereo not drawn) [Component F-2, β-Methylglucoside]	Average cell viability (%)	102.1

Entry Oc1cc(O)c2c(c1)OC(c1ccc(O)c(O)c1)C(O)C2 (stereo not shown) : reported Average cell viability (%) = ?
102.5

// returns reported Average cell viability (%) for input COc1cc(CCc2ccccc2O)cc(OC)c1O
105.9

* * *

Below, each of the compounds is paired with its reported Average cell viability (%) value.
Test system: Madin-Darby bovine kidney (MDBK) cells
Experiment: In vitro MTT cytotoxicity assay on MDBK cells
Type: cell-based
Settings: MDBK cells, 50 μM, 24 h, MTT
The answer is to be given in %; state only the numeric part.

COMPOUND	UNIT_STRING	Average cell viability (%)
O=C(CCc1ccc(O)cc1)c1c(O)cc(O[C@@H]2O[C@H](CO)[C@@H](O)[C@H](O)[C@H]2O)cc1O	%	92.9

Now take the following compound into account.
Give the measured Average cell viability (%) of O=C(CCc1ccc(O)cc1)c1c(O)cc(O)cc1O[C@@H]1O[C@H](CO)[C@@H](O)[C@H](O)[C@H]1O .
95.8

* * *

Recorded measurements of Average cell viability (%), one per entry
Tested on: Madin-Darby bovine kidney (MDBK) cells
Experiment: In vitro MTT cytotoxicity assay on MDBK cells
Type: cell-based
Conditions: MDBK cells, 0.1 μM, 24 h, MTT
Your answer is read as %, so omit the unit and give the number.

Here are 3 compounds together with their reported answers.
COMPOUND	Average cell viability (%)
COC1OC(CO)C(O)C(O)C1O (stereo not drawn) [Component F-2, β-Methylglucoside]	99.2
O=C(CCc1ccc(O)cc1)c1c(O)cc(O)cc1O[C@@H]1O[C@H](CO)[C@@H](O)[C@H](O)[C@H]1O [Component C-7, Phlorhizin]	87.9
Oc1cc(O)c2c(c1)OC(c1ccc(O)c(O)c1)C(O)C2 (stereo not shown) [E−2, Catechin]	101.1

What value of Average cell viability (%) has been recorded for this entry: COc1ccc(-c2cc(=O)c3c(O)c(C)c(OC)cc3o2)cc1 [Component C-2, 8-Demethyleucalyptin]
97.8

Would you kindly share the measured Average cell viability (%) for COc1cc(CCc2ccccc2O)cc(OC)c1O [Component A-2] ?
98.7

Fill blank: measured Average cell viability (%) of the compound O=C(CCc1ccc(O)cc1)c1c(O)cc(O[C@@H]2O[C@H](CO)[C@@H](O)[C@H](O)[C@H]2O)cc1O [Component C-6, Trilobatin] is ____.
89.1

// Average cell viability (%) lookup, key: C[C@@H]1O[C@@H](O[C@H]2[C@H](O)[C@@H](O)[C@H](OC[C@H]3O[C@@H](OC(=O)[C@]45CCC(C)(C)C[C@H]4C4=CC[C@@H]6[C@@]7(C)CC[C@H](O[C@@H]8OC[C@H](O)[C@H](O)[C@H]8O[C@@H]8O[C@H](CO)[C@@H](O)[C@H](O)[C@H]8O)[C@@](C)(CO)[C@@H]7CC[C@@]6(C)[C@]4(C)CC5)[C@H](O)[C@@H](O)[C@@H]3O)O[C@@H]2CO)[C@H](O)[C@H](O)[C@H]1O [Component I-1, Cauloside G]
100.7

* * *

Experiment: In vitro MTT cytotoxicity assay on MDBK cells
Format: cell-based, bovine
Conditions: bovine, MDBK cells (NBL-1 strain)
QUANTITY_NAME: viability at 24 h, 50 µM (%)
Express the result in % but write the number alone.

So what's the measured viability at 24 h, 50 µM for this one? O=c1c(O[C@@H]2O[C@@H](CO)[C@H](O)[C@H]2O)c(-c2ccc(O)c(O)c2)oc2cc(O)cc(O)c12
104

What value of viability at 24 h, 50 µM has been recorded for this entry: Oc1cc(O)c2c(c1)O[C@H](c1cc(O)c(O)c(O)c1)[C@@H](O)C2
92.6

// lookup viability at 24 h, 50 µM for CC1(C)CC[C@]2(C)CC[C@]3(C)C(=CC[C@@H]4[C@@]5(C)CC[C@H](O)C(C)(C)[C@@H]5CC[C@]43C)[C@@H]2C1
87.7
